Sourced from patent US8093386B2

system_under_test: MMP-2 (Homo sapiens, UniProt P08253)
Construct: gift of Prof; Gillian Murphy (Oncology Department, Cambridge University, UK)
Sequence (P08253 110-660): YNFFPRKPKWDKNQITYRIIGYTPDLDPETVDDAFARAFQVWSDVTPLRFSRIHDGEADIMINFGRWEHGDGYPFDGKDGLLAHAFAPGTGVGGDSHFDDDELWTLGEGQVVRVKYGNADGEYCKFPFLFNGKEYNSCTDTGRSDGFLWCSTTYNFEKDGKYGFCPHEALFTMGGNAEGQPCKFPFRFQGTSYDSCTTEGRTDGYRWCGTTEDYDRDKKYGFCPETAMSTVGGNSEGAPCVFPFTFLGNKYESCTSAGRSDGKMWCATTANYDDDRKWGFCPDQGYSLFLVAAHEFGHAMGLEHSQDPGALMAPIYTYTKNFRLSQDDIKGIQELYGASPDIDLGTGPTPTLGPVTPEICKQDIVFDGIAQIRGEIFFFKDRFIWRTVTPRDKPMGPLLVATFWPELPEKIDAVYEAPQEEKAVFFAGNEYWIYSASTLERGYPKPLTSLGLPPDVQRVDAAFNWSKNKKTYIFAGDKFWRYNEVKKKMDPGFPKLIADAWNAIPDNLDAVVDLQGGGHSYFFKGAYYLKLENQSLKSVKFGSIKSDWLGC
experimental_protocol: In vitro fluorometric inhibition assay of MMPs: MMP-2
Assay type: biochemical
test_parameters: text b547
pIC50: −log10 of the molar value.
metric: pIC50

>>> df
                                   molecule                     system_under_test  assay_value
0  CC#CCOc1ccc(Sc2ccccc2CC(=O)NO)cc1 [Compound 21c]  MMP-2 (Homo sapiens, UniProt P08253)         5.84

###

The entries below come with measured pIC50 values attached.
system_under_test: MMP-9 (Homo sapiens, UniProt P14780)
Construct: gift of Prof; Gillian Murphy (Oncology Department, Cambridge University, UK)
Sequence (P14780 107-707 limits assumed): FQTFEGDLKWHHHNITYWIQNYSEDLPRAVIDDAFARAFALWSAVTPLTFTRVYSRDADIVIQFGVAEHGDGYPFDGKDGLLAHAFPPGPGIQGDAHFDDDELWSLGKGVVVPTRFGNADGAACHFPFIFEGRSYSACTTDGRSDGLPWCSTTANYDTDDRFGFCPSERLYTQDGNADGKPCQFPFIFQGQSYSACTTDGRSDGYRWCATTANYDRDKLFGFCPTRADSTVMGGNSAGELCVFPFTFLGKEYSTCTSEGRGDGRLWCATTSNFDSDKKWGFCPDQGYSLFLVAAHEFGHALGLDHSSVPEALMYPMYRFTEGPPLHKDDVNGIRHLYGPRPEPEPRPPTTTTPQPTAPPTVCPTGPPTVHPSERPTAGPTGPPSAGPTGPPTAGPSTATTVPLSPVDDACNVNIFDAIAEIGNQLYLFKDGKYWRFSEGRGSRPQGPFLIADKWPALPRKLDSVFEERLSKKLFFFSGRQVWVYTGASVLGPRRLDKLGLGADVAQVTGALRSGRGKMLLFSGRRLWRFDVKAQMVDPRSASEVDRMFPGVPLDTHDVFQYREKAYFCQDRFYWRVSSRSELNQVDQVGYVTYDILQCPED
experimental_protocol: In vitro fluorometric inhibition assay of MMPs: MMP-9
Type: biochemical
test_parameters: Table II, cells without (*)
pIC50: −log10 of the molar value.
metric: pIC50

>>> print(df.to_string())
                                   molecule                     system_under_test  metric  assay_value
0  COc1ccc(-c2ccc(Sc3ccccc3C(C)C(=O)NS(C)(=O)=O)cc2)cc1 (centres unmarked)  MMP-9 (Homo sapiens, UniProt P14780)   pIC50         4.13
1  COc1ccc(-c2ccc(Sc3ccccc3CC(=O)NS(C)(=O)=O)cc2)cc1  MMP-9 (Homo sapiens, UniProt P14780)   pIC50         4.75
